Values compiled from ChEMBL document CHEMBL3046347.

assay: Cytotoxicity against Homo sapiens (human) […] cells at 10 uM; format: cell-based
property-label: Activity (%)
The response must be a number in % with no trailing unit.

Activity reading for `COc1cc(OC)c(/C=C/C(=O)c2cccc(NC(=O)c3ccc(C(C)(C)C)cc3)c2)c(OC)c1Br` : 56

Activity reading for `COc1cc(OC)c(/C=C/C(=O)c2cccc(NC(=O)c3cccs3)c2)c(OC)c1Br` : 53

Activity reading for `COc1cc(OC)c(/C=C/C(=O)c2cccc(NC(=O)c3ccccc3C(F)(F)F)c2)c(OC)c1Br` : 62

Activity reading for `COc1cc(OC)c(/C=C/C(=O)c2cccc(NC(=O)c3ccc(F)cc3)c2)c(OC)c1Br` : 49

Activity reading for `COc1cc(OC)c(/C=C/C(=O)c2cccc(NC(=O)c3cccc(Br)c3)c2)c(OC)c1Br` : 31

* * *

Collected inhibition values appear next to each entry.
Target: Prostaglandin G/H synthase 1 (Ovis aries);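 also: colorimetric read-out, measured after 5 min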
Sequence (whole entry): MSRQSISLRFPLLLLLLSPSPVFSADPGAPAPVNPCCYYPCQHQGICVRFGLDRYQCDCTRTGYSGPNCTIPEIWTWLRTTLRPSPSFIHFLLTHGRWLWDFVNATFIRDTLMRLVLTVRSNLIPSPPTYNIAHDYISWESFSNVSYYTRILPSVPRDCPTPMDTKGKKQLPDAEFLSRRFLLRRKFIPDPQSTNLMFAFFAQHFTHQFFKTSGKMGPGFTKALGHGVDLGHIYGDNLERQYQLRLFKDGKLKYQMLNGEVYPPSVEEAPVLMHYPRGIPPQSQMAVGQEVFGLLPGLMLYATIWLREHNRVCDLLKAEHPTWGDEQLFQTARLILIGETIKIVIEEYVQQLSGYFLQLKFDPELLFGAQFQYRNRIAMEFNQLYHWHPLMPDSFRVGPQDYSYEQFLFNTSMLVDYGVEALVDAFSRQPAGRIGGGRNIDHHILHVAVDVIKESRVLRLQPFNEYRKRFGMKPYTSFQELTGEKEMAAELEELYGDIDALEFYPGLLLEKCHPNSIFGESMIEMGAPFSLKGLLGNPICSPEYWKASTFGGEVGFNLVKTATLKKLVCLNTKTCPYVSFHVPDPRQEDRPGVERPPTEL
Settings: at 1 µM
Description: Inhibition of Ovis aries (sheep) COX1 at 1 uM after 5 min by colorimetric analysis
The response must be a number in % with no trailing unit.

Recorded results for 2 molecules are shown here.
# compound-structure, study-system, inhibition (%)
records = [
    ("COc1cc(OC)c(/C=C/C(=O)c2cccc(NC(=O)c3ccccc3C)c2)c(OC)c1Br", "Prostaglandin G/H synthase 1 (Ovis aries)", 31.5),
    ("COc1cc(OC)c(/C=C/C(=O)c2cccc(NC(=O)c3cccc(F)c3)c2)c(OC)c1Br", "Prostaglandin G/H synthase 1 (Ovis aries)", 59.8),
]

inhibition reading for `COc1cc(OC)c(/C=C/C(=O)c2cccc(NC(=O)c3ccccc3C(F)(F)F)c2)c(OC)c1Br` : 39.9

inhibition reading for `COc1cc(OC)c(/C=C/C(=O)c2cccc(NC(=O)c3cccc(Br)c3)c2)c(OC)c1Br` : 41.7

inhibition reading for `COc1cc(OC)c(/C=C/C(=O)c2cccc(NC(=O)c3cccc(Cl)c3)c2)c(OC)c1Br` : 53.9

inhibition reading for `COc1cc(OC)c(/C=C/C(=O)c2cccc(NC(=O)c3cccc(C)c3)c2)c(OC)c1Br` : 24.2
